# testDetails: total protein half-life in vivo (active degradation + dilution); higher = more stable protein
# conditionContext: wild type E. coli NCM3722; growth: P-lim chemostat; doubling time 12 h
Entry flag: Satisfied if total protein half-life in vivo reaches 9 h; Not satisfied if it does not.

MRYPVTLTPAPEGGYMVSFVDIPEALTQGETVAEAMEAAKDALLTAFDFYFEDNELIPLPSPLNSHDHFIEVPLSVASKVLLLNAFLQSEITQQELARRIGKPKQEITRLFNLHHATKIDAVQLAAKALGKELSLVMV: Not satisfied
MLSRHINYFLAVAEHGSFTRAASALHVSQPALSQQIRQLEESLGVPLFDRSGRTIRLTDAGEVWRQYASRALQELGAGKRAIHDVADLTRGSLRIAVTPTFTSYFIGPLMADFYARYPSITLQLQEMSQEKIEDMLCRDELDVGIAFAPVHSPELEAIPLLTESLALVVAQHHPLAVHEQVALSRLHDEKLVLLSAEFATREQIDHYCEKAGLHPQVVIEANSISAVLELIRRTSLSTLLPAAIATQHDGLKAISLAPPLLERTAVLLRRKNSWQTAAAKAFLHMALDKCAVVGGNESR: Not satisfied
MSQLTHINAAGEAHMVDVSAKAETVREARAEAFVTMRSETLAMIIDGRHHKGDVFATARIAGIQAAKRTWDLIPLCHPLMLSKVEVNLQAEPEHNRVRIETLCRLTGKTGVEMEALTAASVAALTIYDMCKAVQKDMVIGPVRLLAKSGGKSGDFKVEADD [P0A738]: Satisfied
MEQRRLASTEWVDIVNEENEVIAQASREQMRAQCLRHRATYIVVHDGMGKILVQRRTETKDFLPGMLDATAGGVVQADEQLLESARREAEEELGIAGVPFAEHGQFYFEDKNCRVWGALFSCVSHGPFALQEDEVSEVCWLTPEEITARCDEFTPDSLKALALWMKRNAKNEAVETETAE: Not satisfied
MDMDLNNRLTEDETLEQAYDIFLELAADNLDPADVLLFNLQFEERGGAELFDPAEDWQEHVDFDLNPDFFAEVVIGLADSEDGEINDVFARILLCREKDHKLCHIIWRE [P0A8L7]: Satisfied

In: Check the entry MIRQRRRALTPEQQQEMGQQAATRMMTYPPVVMAHTVAVFLSFDGELDTQPLIEQLWRAGKRVYLPVLHPFSAGNLLFLNYHPQSELVMNRLKIHEPKLDVRDVLPLSRLDVLITPLVAFDEYGQRLGMGGGFYDRTLQNWQHYKTQPVGYAHDCQLVEKLPVEEWDIPLPAVVTPSKVWEW [P0AC28] : does total protein half-life in vivo equal or exceed 9 h?
Out: Not satisfied

In: Check the entry MTLDLPRRFPWPTLLSVCIHGAVVAGLLYTSVHQVIELPAPAQPISVTMVTPADLEPPQAVQPPPEPVVEPEPEPEPIPEPPKEAPVVIEKPKPKPKPKPKPVKKVQEQPKRDVKPVESRPASPFENTAPARLTSSTATAATSKPVTSVASGPRALSRNQPQYPARAQALRIEGQVKVKFDVTPDGRVDNVQILSAKPANMFEREVKNAMRRWRYEPGKPGSGIVVNILFKINGTTEIQ : does total protein half-life in vivo equal or exceed 9 h?
Out: Not satisfied

In: Check the entry MAGNTIGQLFRVTTFGESHGLALGCIVDGVPPGIPLTEADLQHDLDRRRPGTSRYTTQRREPDQVKILSGVFEGVTTGTSIGLLIENTDQRSQDYSAIKDVFRPGHADYTYEQKYGLRDYRGGGRSSARETAMRVAAGAIAKKYLAEKFGIEIRGCLTQMGDIPLDIKDWSQVEQNPFFCPDPDKIDALDELMRALKKEGDSIGAKVTVVASGVPAGLGEPVFDRLDADIAHALMSINAVKGVEIGDGFDVVALRGSQNRDEITKDGFQSNHAGGILGGISSGQQIIAHMALKPTSSITVPGRTINRFGEEVEMITKGRHDPCVGIRAVPIAEAMLAIVLMDHLLRQRAQNADVKTDIPRW : does total protein half-life in vivo equal or exceed 9 h?
Out: Satisfied

In: Check the entry MQLTSFTDYGLRALIYMASLPEGRMTSISEVTDVYGVSRNHMVKIINQLSRAGYVTAVRGKNGGIRLGKPASAIRIGDVVRELEPLSLVNCSSEFCHITPACRLKQALSKAVQSFLTELDNYTLADLVEENQPLYKLLLVE [P0AF63] : does total protein half-life in vivo equal or exceed 9 h?
Out: Not satisfied

In: Check the entry MLKTIQDKARHRTRPLWAWLKLLWQRIDEDNMTTLAGNLAYVSLLSLVPLVAVVFALFAAFPMFSDVSIQLRHFIFANFLPATGDVIQRYIEQFVANSNKMTAVGACGLIVTALLLMYSIDSALNTIWRSKRARPKIYSFAVYWMILTLGPLLAGASLAISSYLLSLRWASDLNTVIDNVLRIFPLLLSWISFWLLYSIVPTIRVPNRDAIVGAFVAALLFEAGKKGFALYITMFPSYQLIYGVLAVIPILFVWVYWTWCIVLLGAEITVTLGEYRKLKQAAEQEEDDEP [P0A8K8] : does total protein half-life in vivo equal or exceed 9 h?
Out: Satisfied
